Molecular target: PI3K delta (Homo sapiens)
Construct: purchased Millipore, Billerica, MA, USA
Sequence (O00329 whole entry, species assumed): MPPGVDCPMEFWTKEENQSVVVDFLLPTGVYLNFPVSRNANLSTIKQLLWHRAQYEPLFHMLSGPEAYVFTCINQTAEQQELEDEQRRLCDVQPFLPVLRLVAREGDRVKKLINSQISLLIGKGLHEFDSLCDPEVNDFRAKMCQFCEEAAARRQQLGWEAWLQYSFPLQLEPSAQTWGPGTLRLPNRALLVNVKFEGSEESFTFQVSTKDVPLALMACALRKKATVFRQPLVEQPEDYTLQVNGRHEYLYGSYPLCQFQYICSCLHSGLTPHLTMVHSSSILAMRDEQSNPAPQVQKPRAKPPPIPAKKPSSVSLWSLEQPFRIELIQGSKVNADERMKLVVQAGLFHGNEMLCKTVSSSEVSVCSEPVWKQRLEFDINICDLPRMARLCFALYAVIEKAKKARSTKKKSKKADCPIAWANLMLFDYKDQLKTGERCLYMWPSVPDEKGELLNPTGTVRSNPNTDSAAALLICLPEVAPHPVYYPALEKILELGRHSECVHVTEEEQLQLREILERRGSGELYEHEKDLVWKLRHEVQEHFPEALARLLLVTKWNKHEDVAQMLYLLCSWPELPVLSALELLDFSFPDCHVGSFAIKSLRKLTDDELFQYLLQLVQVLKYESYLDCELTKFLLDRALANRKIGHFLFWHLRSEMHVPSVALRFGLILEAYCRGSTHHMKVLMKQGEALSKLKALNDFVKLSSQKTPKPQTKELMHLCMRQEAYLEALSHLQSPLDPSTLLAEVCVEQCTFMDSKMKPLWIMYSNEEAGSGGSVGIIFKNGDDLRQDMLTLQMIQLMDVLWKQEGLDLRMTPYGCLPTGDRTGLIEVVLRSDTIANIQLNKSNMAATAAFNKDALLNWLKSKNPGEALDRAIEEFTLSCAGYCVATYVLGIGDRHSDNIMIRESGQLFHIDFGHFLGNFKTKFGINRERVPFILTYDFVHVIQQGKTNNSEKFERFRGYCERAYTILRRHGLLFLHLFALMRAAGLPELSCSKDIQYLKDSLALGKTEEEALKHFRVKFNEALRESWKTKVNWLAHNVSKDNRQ
Sequence (P27986 whole entry partner, species assumed): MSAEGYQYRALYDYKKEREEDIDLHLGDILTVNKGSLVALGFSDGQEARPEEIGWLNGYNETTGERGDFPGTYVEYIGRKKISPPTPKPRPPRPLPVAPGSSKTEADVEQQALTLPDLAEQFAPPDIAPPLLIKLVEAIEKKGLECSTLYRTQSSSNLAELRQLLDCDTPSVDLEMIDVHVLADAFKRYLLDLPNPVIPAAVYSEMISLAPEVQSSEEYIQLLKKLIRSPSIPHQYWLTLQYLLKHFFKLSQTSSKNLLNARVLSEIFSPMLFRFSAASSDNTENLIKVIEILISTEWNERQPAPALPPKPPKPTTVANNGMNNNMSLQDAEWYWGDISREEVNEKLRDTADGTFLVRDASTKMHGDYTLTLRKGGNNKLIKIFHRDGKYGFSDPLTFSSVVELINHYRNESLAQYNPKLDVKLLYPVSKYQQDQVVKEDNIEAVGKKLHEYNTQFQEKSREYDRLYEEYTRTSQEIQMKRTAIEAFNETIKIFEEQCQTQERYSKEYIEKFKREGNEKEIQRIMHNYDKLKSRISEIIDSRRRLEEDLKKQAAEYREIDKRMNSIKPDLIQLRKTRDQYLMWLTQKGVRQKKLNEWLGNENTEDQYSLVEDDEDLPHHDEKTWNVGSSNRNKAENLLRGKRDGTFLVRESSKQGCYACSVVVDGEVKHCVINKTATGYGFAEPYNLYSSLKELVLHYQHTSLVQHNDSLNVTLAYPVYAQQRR
Experiment: Luciferase-based luminescence assay (KinaseGlo), PI3K delta enzymatic activity
Assay type: biochemical
Conditions: ratio of enzymatic IC50 values, Table 1
Experimental: PI3K catalyzes the conversion of phosphatidylinositol-4,5-bisphosphate (PIP2) and ATP to phosphatidylinositol-3,4,5-trisphosphate (PIP3) and ADP. […] PI3K alpha and PI3K delta enzymatic activity was determined by measuring the amount of ATP consumed following the kinase reaction using a luciferase-based luminescence assay (KinaseGlo®, Promega Corp., Madison, WI, USA). […] IC50 values were determined by curve fitting using Graphpad Prism software (Graphpad Software, La Jolla, CA, USA).

{"columns": ["smiles structure", "β/δ ratio"],
 "data": [
  ["CC(C)(Cc1ccccc1Cl)Nc1nc(N2CCOCC2)nc(-n2c(C(F)F)nc3ccccc32)n1", "D’"],
  ["CC(C)(Cc1cccc2ccccc12)Nc1nc(N2CCOCC2)nc(-n2c(C(F)F)nc3ccccc32)n1", "D’"],
  ["CC(C)(Cc1ccccc1-c1cccnc1F)Nc1nc(N2CCOCC2)nc(-n2c(C(F)F)nc3ccccc32)n1", "A’"],
  ["CC(C)(Cc1ccccc1F)Nc1nc(N2CCOCC2)nc(-n2c(C(F)F)nc3ccccc32)n1", "C’"]
]}
